Entry source: ChEMBL document CHEMBL4477206

ASSAY_PROCEDURE: in vitro
CONDITION_NOTES: human, sh-sy5y
Description: Cytotoxicity against human SH-SY5Y cells assessed as cell viability at 40 uM after 24 hrs by MTT assay
QUANTITY: viability at 24 h, 40 µM (%)
Unit % implied. Number only.

Look at this compound and give its reported viability at 24 h, 40 µM. COc1cc2c(cc1OC)C(=O)C(CC1CCN(Cc3ccccc3)CC1)C2 (stereo unspecified)
96.9

====

ASSAY_PROCEDURE: Tmax in Wistar rat at 5 mg/kg, po administered as a single dose by HPLC analysis
Format: ADME, organism-based
CONDITION_NOTES: in vivo
QUANTITY: Tmax (h)
Answer format: numeric, h implied, no suffix.

Look up Tmax: Cc1ccc(-c2nc(NCC3CCN(Cc4cc(F)cc(F)c4)CC3)sc2-c2ccc(C)cc2)cc1
3.66

====

TARGET_OF_ASSAY: Acetylcholinesterase (Homo sapiens, UniProt P22303)
Sequence (P22303 whole entry): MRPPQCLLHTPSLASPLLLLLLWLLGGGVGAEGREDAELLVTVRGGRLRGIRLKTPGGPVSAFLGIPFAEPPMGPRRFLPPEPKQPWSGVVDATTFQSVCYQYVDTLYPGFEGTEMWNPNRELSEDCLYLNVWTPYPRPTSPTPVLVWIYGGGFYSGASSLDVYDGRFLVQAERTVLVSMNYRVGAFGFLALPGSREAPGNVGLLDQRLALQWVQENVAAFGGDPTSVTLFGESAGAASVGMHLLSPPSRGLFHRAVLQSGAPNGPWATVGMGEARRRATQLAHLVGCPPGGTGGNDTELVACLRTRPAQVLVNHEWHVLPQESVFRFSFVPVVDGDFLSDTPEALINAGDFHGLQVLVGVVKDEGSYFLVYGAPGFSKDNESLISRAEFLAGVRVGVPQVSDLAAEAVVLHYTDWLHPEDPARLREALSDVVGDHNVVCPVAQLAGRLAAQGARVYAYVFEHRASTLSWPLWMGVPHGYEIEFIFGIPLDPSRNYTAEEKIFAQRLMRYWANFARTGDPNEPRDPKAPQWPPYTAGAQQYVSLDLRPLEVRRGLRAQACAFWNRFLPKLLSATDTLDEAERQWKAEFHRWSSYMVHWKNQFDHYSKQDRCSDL
CONDITION_NOTES: at 10 µM
Description: Inhibition of human erythrocyte AChE-induced Abeta (1 to 42) aggregation at 10 uM incubated for 24 hrs by thioflavin-T fluorescence assay
QUANTITY: inhibition (%)
Reply with just the number (in %).

Example results:
- SMILES_RECORD: "COc1ccc(-c2nc(NCC3CCN(Cc4c(F)cccc4Cl)CC3)sc2-c2ccc(OC)cc2)cc1"
  TARGET_OF_ASSAY: "Acetylcholinesterase (Homo sapiens, UniProt P22303)"
  inhibition [%]: 27.2
- SMILES_RECORD: "Cc1ccc(-c2nc(NCC3CCN(Cc4ccc(F)cc4)CC3)sc2-c2ccc(C)cc2)cc1"
  TARGET_OF_ASSAY: "Acetylcholinesterase (Homo sapiens, UniProt P22303)"
  inhibition [%]: 25.8
- SMILES_RECORD: "Cc1ccc(-c2nc(NCC3CCN(Cc4ccccc4C(F)(F)F)CC3)sc2-c2ccc(C)cc2)cc1"
  TARGET_OF_ASSAY: "Acetylcholinesterase (Homo sapiens, UniProt P22303)"
  inhibition [%]: 26.4
- SMILES_RECORD: "O=C(Nc1nc(-c2ccc(Cl)cc2)c(-c2ccc(Cl)cc2)s1)C1CCN(Cc2cccc(F)c2)CC1"
  TARGET_OF_ASSAY: "Acetylcholinesterase (Homo sapiens, UniProt P22303)"
  inhibition [%]: 18.8
- SMILES_RECORD: "Fc1ccc(CN2CCC(CNc3nc(-c4ccc(Cl)cc4)c(-c4ccc(Cl)cc4)s3)CC2)c(Cl)c1"
  TARGET_OF_ASSAY: "Acetylcholinesterase (Homo sapiens, UniProt P22303)"
  inhibition [%]: 15
- SMILES_RECORD: "COc1ccc(-c2nc(NC3CCN(Cc4ccc(C)cc4)CC3)sc2-c2ccc(OC)cc2)cc1"
  TARGET_OF_ASSAY: "Acetylcholinesterase (Homo sapiens, UniProt P22303)"
  inhibition [%]: 19.2

Give the reported inhibition for COc1ccc(-c2nc(NCC3CCN(Cc4ccccc4C)CC3)sc2-c2ccc(OC)cc2)cc1 (system: Acetylcholinesterase (Homo sapiens, UniProt P22303)).
25.6

inhibition of COc1ccc(-c2nc(NC3CCN(Cc4ccc(C(F)(F)F)cc4)CC3)sc2-c2ccc(OC)cc2)cc1 on Acetylcholinesterase (Homo sapiens, UniProt P22303)?
18.9

====

ASSAY_PROCEDURE: in vitro
CONDITION_NOTES: human, SH-SY5Y cells
Description: Cytotoxicity against human SH-SY5Y cells assessed as cell viability at 80 uM after 24 hrs by MTT assay
Each entry below carries its reported viability at 24 h, 80 µM.
Give the number; % is assumed, so skip it.

- SMILES_RECORD: "Cc1ccc(-c2nc(NCC3CCN(Cc4ccccc4C)CC3)sc2-c2ccc(C)cc2)cc1"
  viability at 24 h, 80 µM (%): 90.1
- SMILES_RECORD: "COc1ccc(-c2nc(NC(=O)C3CCN(Cc4c(F)cccc4Cl)CC3)sc2-c2ccc(OC)cc2)cc1"
  viability at 24 h, 80 µM (%): 91.6

What value of viability at 24 h, 80 µM has been recorded for this entry: COc1ccc(-c2nc(NC3CCN(Cc4ccc(C(F)(F)F)cc4)CC3)sc2-c2ccc(OC)cc2)cc1
90.4

Need viability at 24 h, 80 µM of Cc1ccc(-c2nc(NCC3CCN(Cc4cc(F)cc(F)c4)CC3)sc2-c2ccc(C)cc2)cc1 , thanks.
91.3

I'd like to know its viability at 24 h, 80 µM. The compound in question is Cc1ccc(-c2nc(NCC3CCN(Cc4ccc(F)cc4)CC3)sc2-c2ccc(C)cc2)cc1
89.7

Give the measured viability at 24 h, 80 µM of COc1ccc(-c2nc(NCC3CCN(Cc4ccccc4C)CC3)sc2-c2ccc(OC)cc2)cc1 .
87.2

Which value of viability at 24 h, 80 µM has been reported for Cc1ccccc1CN1CCC(CNc2nc(-c3ccc(Cl)cc3)c(-c3ccc(Cl)cc3)s2)CC1 in the records?
90.9
